Each record here notes measured INHIBITION.
- Test system: Plasmodium berghei
- Assay name: Screen against P. berghei liver stage (PbLuc), transformed with Luciferase, at 10uM
- Assay type: functional, HepG2
- Reported conditions: tested at 10 uM
Screen size: about 69,000 compounds; about 8,600 (12%) showed an effect of 50% or more. The sample as a whole holds a higher share of strong results than the screen did.
Give the quantity in %, number only.

{"Molecule": "COCC1CN(Cc2ccc(C)o2)Cc2cn(C)nc21 (stereo not drawn)", "Reading unit": "%", "INHIBITION": 29.7}

Now for another entry.
Query: Could you share which INHIBITION value was measured for COc1cccc([C@H]2CN(C(C)=O)[C@@H]3CCN(Cc4ccsc4)C[C@H]23)c1 ?
Response: 63.4
